# Test system: OVCAR-5 ovarian
# Assay Remarks: NCI-60 one-dose screen, 48 h (100 = growth as untreated, 0 = no growth, -100 = all killed)
# Conditions Used: 10 µM unless noted
About 83,000 compounds went through this panel and 20% of them were active in at least one assay; those are over-represented in the sample as a whole.
Give growth for every item shown.
Numbers only, in %.

> print(dat)
                                   compound  assay.endpoint  measured
1  CC1OC(n2c3ccccc3c3c4c(c5c6ccccc6[nH]c5c32)C(=O)N(CCN2CCOCC2)C4=O)CC(O)C1O (stereo unspecified)          growth      61.7

Go through the list and state growth for each entry.
1. N=c1nc(N2CCCCC2)cc(N)n1O
2. CC(C)(c1ccccc1)c1cc(O)c(C(C)(C)c2ccccc2)cc1O
3. O=C1OC(/C=C/c2ccccc2)=NC/1=C/c1ccccc1[N+](=O)[O-]
4. Cc1cccc(N=NC(=S)NNc2cccc(C)c2)c1
5. COc1cccc(C2C(C#N)=C(N)Oc3cc4c(cc32)OCO4)c1 (stereo unspecified)
6. Cc1ccccc1Nc1n[nH]c(Cc2ccccc2)n1
7. CCCCCCCCCCCCNC(=O)N[C@H](C(=O)N[C@H]1/C=C/CCNC(=O)/C=C/[C@H](C)NC1=O)C(C)C

103
78.8
99.1
111
31.1
111
-83.7

Go through the list and state growth for each entry.
1. O=C(c1ccccc1)c1cccc(C(Br)Br)c1
2. CN(C)CCCn1c(=O)c2cc([N+](=O)[O-])ccc2c2cnc3[nH]ccc3c21
3. O=C(N/N=C/c1ccc([N+](=O)[O-])o1)c1ccc(O)cc1

1: 125; 2: 73.1; 3: 78.7

Entry source: PubChem BioAssay (NCI)
